Biological target: Cytochrome P450 2C9 (Homo sapiens) (UniProt P11712)
Sequence (P11712 whole entry, looked up): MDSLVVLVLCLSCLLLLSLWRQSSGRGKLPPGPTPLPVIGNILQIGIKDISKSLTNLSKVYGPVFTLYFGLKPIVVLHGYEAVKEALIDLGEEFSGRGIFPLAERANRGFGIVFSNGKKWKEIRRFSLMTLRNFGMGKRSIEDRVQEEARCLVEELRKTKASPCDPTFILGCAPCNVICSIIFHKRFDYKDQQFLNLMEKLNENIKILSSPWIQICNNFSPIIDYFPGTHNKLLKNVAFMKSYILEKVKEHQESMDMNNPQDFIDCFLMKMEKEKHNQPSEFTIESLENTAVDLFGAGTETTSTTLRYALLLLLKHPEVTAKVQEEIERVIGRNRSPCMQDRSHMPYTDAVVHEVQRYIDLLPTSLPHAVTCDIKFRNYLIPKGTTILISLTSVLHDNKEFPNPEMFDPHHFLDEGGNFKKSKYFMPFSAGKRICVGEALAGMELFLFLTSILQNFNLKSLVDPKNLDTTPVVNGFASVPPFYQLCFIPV
Assay: Cytochrome panel assay with activity outcomes
Conditions: recombinant CYP, pro-luciferin dealkylation, luminescence, p450-cyp2c9; series mostly up to 57.1 µM
Hit rate of the full screen: of about 16,000 compounds, about 4,000 (25%) were called active. Another 26% or so got no clear call; they are omitted. The call rests on the fitted dose curve; in most records, active means well fitted curve in the direction sought with a large enough effect; inconclusive means small, poorly fitted or top-dose-only effect, or effect the other way; inactive means no such curve, though single readings can be large or run the other way. Only a sample is shown.
Outcome codes: active, inactive

>>> class_label("Cc1cccc2nc(C(F)(F)F)nc(=O)n12")
"inactive"
>>> class_label("CCC(=O)Nc1nnc(C(C)(C)C)s1")
"inactive"
>>> class_label("COC(=O)C1=C(C)N=C2SC(C)C(=O)N2C1/C=C/c1ccccc1 (stereo unspecified)")
"active"
>>> class_label("CC(C)(C)c1nnc(NC(=O)c2cc(-c3ccccc3)nc3ccccc23)s1")
"active"
>>> class_label("CCOc1cccc(/C(O)=C2/C(=O)C(=O)N(Cc3cccnc3)C2c2ccco2)c1 (stereo unspecified)")
"active"
>>> class_label("O=C(O)[C@H]1C[C@H](C(=O)O)N1")
"inactive"
